Source: the supplement of paper PMC7224384

Test system: MDA-MB-453
Assay: drug sensitivity score (DSS), single agent (DSS (weighted AUC score)); higher = more sensitive (stronger viability decrease); extreme values may be limits of the assay
Settings: BLU9931 0 nM; 72 h
Reported drug sensitivity score values follow for various compounds
Hey, just send me the number, nothing else.

Known results for compounds:
CCCCCCCCc1ccc(CCC(N)(CO)CO)cc1 = 8.7
CO[C@@H](C(=O)N1Cc2[nH]nc(NC(=O)c3ccc(N4CCN(C)CC4)cc3)c2C1)c1ccccc1 = 0.3

Identify drug sensitivity score associated with the compound C[C@@]1(C(=O)Nc2ccc(F)nc2)CCCN1c1nc(Nc2cc(C3CC3)n[nH]2)c2cccn2n1
0

Annotate the compound C#Cc1cccc(Nc2ncnc3cc(OCCOC)c(OCCOC)cc23)c1 with its measured drug sensitivity score.
2.7

Given the compound CC(C)Nc1cc(-c2c[nH]c(C(=O)N[C@H](CO)c3cccc(Cl)c3)c2)c(Cl)cn1 , write its reported drug sensitivity score.
3.5

###

System: MDA-MB-453
Assay: drug sensitivity score (DSS), in combination with BLU9931 (DSS (weighted AUC score)); higher = more sensitive (stronger viability decrease); extreme values may be limits of the assay
Settings: BLU9931 100 nM; 72 h
Use drug sensitivity score to assign classes; range list: low interval (below 0.4), middle interval (0.4 to below 6), high interval (6 or more)

CC1(COc2ccc3c(c2)ncn3-c2ccc3cccc(N4CCC(N)CC4)c3n2)COC1 = high interval
O=C(O)c1ccc2c(c1)nc(Nc1cccc(Cl)c1)c1ccncc12 = high interval
O=C(Nc1ccc2[nH]nc(-c3ccncc3)c2c1)[C@@H]1CCN(CC(=O)N2CCN(c3ccc(-c4ncccn4)cc3)CC2)C1 = low interval

Please classify: Nc1cc(F)ccc1NC(=O)/C=C/c1cnn(C/C=C/c2ccccc2)c1
middle interval

Could you tell me which band O=C(/C=C\n1cnc(-c2cc(C(F)(F)F)cc(C(F)(F)F)c2)n1)NNc1cnccn1 [Selinexor] belongs to?
high interval

The entry to classify is CCNc1nc(Nc2cc(F)c(C(=O)N3CCOCC3)cc2OC)ncc1C(F)(F)F ; which class holds it?
low interval

Which bin should I file NC(=S)N/N=C/c1ncccc1N under?
middle interval

###

Attribute: drug sensitivity score
Tested on: MDA-MB-453
Assay: drug sensitivity score (DSS), single agent (DSS (weighted AUC score)); higher = more sensitive (stronger viability decrease); extreme values may be limits of the assay
Conditions: BLU9931 0 nM; 72 h

Example entries begin here.
O=C(Nc1cc(Cl)cc2c1[nH]c1cnccc12)c1cccnc1 = 0
Cc1cnc(Nc2ccc(OCCN3CCCC3)cc2)nc1Nc1cccc(S(=O)(=O)NC(C)(C)C)c1 = 8.3

Continue with the compound presented below.
Read off the recorded drug sensitivity score for CC[C@@H]1CN(C(=O)NCC(F)(F)F)C[C@@H]1c1cnc2cnc3[nH]ccc3n12
0.9

###

Test system: MDA-MB-453
Test: drug sensitivity score (DSS), single agent (DSS (weighted AUC score)); higher = more sensitive (stronger viability decrease); extreme values may be limits of the assay
Details: BLU9931 0 nM; 72 h
REPORTED_METRIC: drug sensitivity score
Please give the numeric answer without any surrounding text.

CC1CCC(n2c3cnccc3c3cnc(Nc4ccc5c(n4)CCN(C(=O)CO)C5)nc32)CC1 (centres undefined) [AMG-925] = 2.6

Return the recorded drug sensitivity score value; entry: CC[C@]1(O)C[C@H]2CN(CCc3c([nH]c4ccccc34)[C@@](C(=O)OC)(c3cc4c(cc3OC)N(C=O)[C@H]3[C@@](O)(C(=O)OC)[C@H](OC(C)=O)[C@]5(CC)C=CCN6CC[C@]43[C@@H]65)C2)C1 [Vincristine]
14.1

Fill in reported drug sensitivity score for this entry: CC[C@@H]1C(=O)OC[C@@H]1Cc1cncn1C [Pilocarpine]
1.2

Give me measured drug sensitivity score, please, for this molecule: N.N.[Cl][Pt][Cl] [Cisplatin]
6.5

###

Tested on: MDA-MB-453
Experiment: drug sensitivity score (DSS), in combination with BLU9931 (DSS (weighted AUC score)); higher = more sensitive (stronger viability decrease); extreme values may be limits of the assay
Conditions: BLU9931 100 nM; 72 h
Category scheme (drug sensitivity score): bin A = under 1, bin B = from 1 up to 7, bin C = 7 and over

Worked examples, 8 compounds total:
COc1cc(N2CCC(N3CCN(C)CC3)CC2)ccc1Nc1ncc(Cl)c(Nc2ccccc2P(C)(C)=O)n1 = bin B
CNC(=O)c1cc(Oc2ccc(NC(=O)Nc3ccc(Cl)c(C(F)(F)F)c3)c(F)c2)ccn1 = bin B
CC(C)[C@H](C(=O)Nc1ccc(C(=O)NO)cc1)c1ccccc1 = bin C
CCc1c(C(=O)C(N)=O)c2c(OCC(=O)O)cccc2n1Cc1ccccc1 = bin A
Cn1cc(-c2cnn3c(N)c(Br)c([C@@H]4CCCNC4)nc23)cn1 = bin B
COc1cc(NS(C)(=O)=O)ccc1Nc1c2ccccc2nc2ccccc12 = bin B
CC[C@@]1(O)C(=O)OCc2c1cc1n(c2=O)Cc2cc3c(CN(C)C)c(O)ccc3nc2-1 = bin C
Cn1c(Nc2ccc(C(F)(F)F)cc2)nc2cc(Oc3ccnc(-c4ncc(C(F)(F)F)[nH]4)c3)ccc21 = bin B

Returns: class label. Input: Cc1nc(NC(=O)N2CCC[C@H]2C(N)=O)sc1-c1ccnc(C(C)(C)C(F)(F)F)c1
bin C

Which bin should I file C[C@@H](C(=O)O)c1ccc(-c2ccccc2)c(F)c1 under?
bin A

Bin this entry: COc1cccc2c1c(O)c(C(=O)N(C)c1ccc(C(F)(F)F)cc1)c(=O)n2C
bin B

Input CN(C)C(=N)NC(=N)N ; output its category
bin A

Class label required: CCn1c(=O)c(-c2ccc(Cl)cc2Cl)cc2cnc(Nc3ccc(N4CCNCC4)c(F)c3)nc21
bin B

Field: class (drug sensitivity score) — entry: O=c1sn(-c2cccc3ccccc23)c(=O)n1Cc1ccccc1
bin A

Which band does Cc1nc(-c2cn3c(n2)-c2ccc(-c4cnn(C(C)(C)C(N)=O)c4)cc2OCC3)n(C(C)C)n1 fall in?
bin C

###

Tested on: MDA-MB-453
Experiment: drug sensitivity score (DSS), in combination with BLU9931 (DSS (weighted AUC score)); higher = more sensitive (stronger viability decrease); extreme values may be limits of the assay
Settings: BLU9931 100 nM; 72 h
The entries below are paired with their reported drug sensitivity score.
Answer using only a numeral; do not append any unit.

Use these answered entries as a reference point.
CO[C@@H](C(=O)N1Cc2[nH]nc(NC(=O)c3ccc(N4CCN(C)CC4)cc3)c2C1)c1ccccc1 [Danusertib] = 0
N#Cc1ccc(COC[C@H]2O[C@@H](n3c(NCc4ccc(Cl)c(Cl)c4)nc4c(N)ncnc43)[C@H](O)[C@@H]2O)cc1 = 4.2
CN1C(=O)N[C@H](Cc2c[nH]c3c(Cl)cccc23)C1=O [Necrostatin 2] = 0
Cn1cnc2c(F)c(Nc3ccc(Br)cc3Cl)c(C(=O)NOCCO)cc21 [Selumetinib] = 0.7
Cn1nccc1Nc1nccc(-c2ccn([C@H](CO)c3ccc(Cl)c(F)c3)c(=O)c2)n1 [Ravoxertinib] = 5.6
C=CC[C@@H]1/C=C(\C)C[C@H](C)C[C@H](OC)[C@H]2O[C@@](O)(C(=O)C(=O)N3CCCC[C@H]3C(=O)O[C@H](/C(C)=C/[C@@H]3CC[C@@H](O)[C@H](OC)C3)[C@H](C)[C@@H](O)CC1=O)[C@H](C)C[C@@H]2OC [Tacrolimus] = 0.8

Output measured drug sensitivity score for this item: Cn1nnc2c(C(N)=O)ncn2c1=O [Temozolomide]
0

###

Test system: MDA-MB-453
Assay: drug sensitivity score (DSS), single agent (DSS (weighted AUC score)); higher = more sensitive (stronger viability decrease); extreme values may be limits of the assay
Details: BLU9931 0 nM; 72 h
# drug sensitivity score >= 2 gives YES, anything below gives NO

// below: answered compounds
C[C@@H](C(=O)O)c1ccc(-c2ccccc2)c(F)c1 = NO
NC(=O)/C(=C/n1cnc(-c2cc(C(F)(F)F)cc(C(F)(F)F)c2)n1)c1cncnc1 [Eltanexor] = YES
CNC(=O)c1ccc(N2C(=S)N(c3cnc(C#N)c(C(F)(F)F)c3)C(=O)C23CCC3)cc1F [Apalutamide] = NO
C=CC(=O)Nc1cc(Nc2nccc(-c3cn(C)c4ccccc34)n2)c(OC)cc1N(C)CCN(C)C = YES
O=C(Nc1nc2cccc(-c3ccc(CN4CCS(=O)(=O)CC4)cc3)n2n1)C1CC1 = YES
COc1cc2c(NC3CCN(C(C)C)CC3)nc(N3CCC(F)(F)CC3)nc2cc1OCCCN1CCCC1 = YES
C[C@H]1CN(C2COC2)CCN1c1ccc(Nc2cc(-c3ccnc(N4CCn5c(cc6c5CC(C)(C)C6)C4=O)c3CO)cn(C)c2=O)nc1 = NO
CN(C)CC#Cc1ccc(OCCCc2sc(N3CCc4cccc(C(=O)Nc5nc6ccccc6s5)c4C3)nc2C(=O)O)c(F)c1 = YES

Entry COc1ccc(-c2ccc3ncc4c(c3c2)n(-c2ccc(N3CCNCC3)c(C(F)(F)F)c2)c(=O)n4C)cn1 : is its drug sensitivity score no less than 2?
YES

Item Clc1ccc(C(c2ccccc2Cl)C(Cl)Cl)cc1 (stereo not given) with drug sensitivity score of 2 or above?
NO

Answer whether drug sensitivity score of CNC(=O)c1cccc2cc(Oc3ccnc4cc(OCC5(N)CC5)c(OC)cc34)ccc12 is greater than or equal to 2.
YES

// inclusive: drug sensitivity score at least 2? input: CON(C)C(=O)N1N=C(c2cc(F)ccc2F)S[C@@]1(CCCN)c1ccccc1
YES

Decide: is the reported value of drug sensitivity score for NC1(c2ccc(-c3nc4ccn5c(=O)[nH]nc5c4cc3-c3ccccc3)cc2)CCC1 equal to or greater than 2?
YES

Has CCN(CC)CCNC(=O)c1c(C)[nH]c(/C=C2\C(=O)Nc3ccc(-c4csc(-c5ccccc5)n4)cc32)c1C a recorded drug sensitivity score greater than or equal to 2?
YES

For this compound, is measured drug sensitivity score 2 or higher? CCS(=O)(=O)c1cccc(-c2cc(C(=O)NC3CCN(C)CC3)c(C)c3[nH]c4ncc(C)cc4c23)c1
YES

Please indicate if the recorded drug sensitivity score for Cc1sc2c(c1C)C(c1ccc(Cl)cc1)=N[C@@H](CC(=O)Nc1ccc(OCCOCCOCCOCCNc3cccc4c3C(=O)N(C3CCC(=O)NC3=O)C4=O)cc1)c1nnc(C)n1-2 (stereo not given in full) meets or exceeds 2.
YES

drug sensitivity score >= 2 for COc1c(OCCCN2CCOCC2)ccc2c1N=C(NC(=O)c1cnc(N)nc1)N1CCN=C21 ?
YES

Does the compound C=CC(=O)N1CC/C(=C\c2ccc(F)c([N+](=O)[O-])c2)C(=O)/C(=C/c2ccc(F)c([N+](=O)[O-])c2)C1 have recorded drug sensitivity score that is 2 or more?
YES

Is drug sensitivity score for O=C(c1ccc(C(=O)N2CCC(N3CCCC3)CC2)c(Nc2ccccc2)c1)N1CCC(N2CCCC2)CC1 at or above 2?
NO

Entry N[C@@H]1CCCN(c2c(/C=C3\SC(=O)NC3=O)cccc2-c2ccccc2)C1 : is its drug sensitivity score no less than 2?
NO
